# System: NCI-H23
# Assay Summary: NCI tumour cell line growth inhibition, 48 h
The source made the active and inactive calls. Rule as the data show it: active = GI50 up to about 1.1 µM and inactive = higher.
Labels: active, inactive

[
  {
    "Compound": "C[C@]12C(=O)C=CCC1=CC[C@@H]1[C@@H]2[C@H]2CC3(O)C(=O)O[C@@]4(C)[C@H]5C[C@@]6(C)[C@@H]7[C@@]2(O)[C@]1(OC[C@H]6C(=O)O5)O[C@]734 (stereo not given in full)",
    "Label": "inactive"
  },
  {
    "Compound": "COC1=CC(=O)c2c(O)c3c(c(O)c2C1=O)OC1(Oc2c(cc4cc(C)oc(=O)c4c2O)CC1O)C3O (stereo not given)",
    "Label": "inactive"
  },
  {
    "Compound": "Nc1ncnc2c1ncn2[C@@H]1O[C@H](COP(=O)(O)O)[C@@H](O)[C@@H]1O",
    "Label": "inactive"
  },
  {
    "Compound": "CC(C)c1cc(C(F)(F)F)nc(NNc2nc(C(C)C)cc(C(F)(F)F)n2)n1",
    "Label": "inactive"
  },
  {
    "Compound": "COC(=O)[C@@H]1Cc2c([nH]c3ccccc23)[C@H](c2ccccc2)N1",
    "Label": "inactive"
  },
  {
    "Compound": "COc1ccc(Oc2cccc(/C=C3/C(=O)Nc4ccccc43)c2)cc1",
    "Label": "inactive"
  },
  {
    "Compound": "Clc1ccc(C2SCc3nc4ccccc4n32)cc1Cl (stereo not given)",
    "Label": "inactive"
  },
  {
    "Compound": "Nc1nc2cc(CNc3ccc(C(=O)O)cc3)ccc2nc1-c1ccccc1",
    "Label": "inactive"
  },
  {
    "Compound": "Cc1c(O)nc(-n2[nH]c3c(c2=O)CCCC3)[nH]c1=O",
    "Label": "inactive"
  },
  {
    "Compound": "CCCOc1cc2c(cc1O)CC[C@@H]1[C@@H]2CC[C@]2(C)[C@@H](O)CC[C@@H]12",
    "Label": "inactive"
  },
  {
    "Compound": "CCCCCCCCCCC(C)CCCCCCC(=O)O (stereo not given)",
    "Label": "inactive"
  },
  {
    "Compound": "CCOC(=O)C(NC(=O)Nc1ccc(Cl)cc1)(OC)C(F)(F)F (stereo not given)",
    "Label": "inactive"
  },
  {
    "Compound": "CC1(C)CCc2cc3c(cc2O1)OC(C)(C)CC3=O",
    "Label": "inactive"
  },
  {
    "Compound": "Cn1c2ccccc2c2c(-c3ccccc3)cc3c(c21)C(=O)C=CC3=O",
    "Label": "inactive"
  },
  {
    "Compound": "COC(=O)c1c(OC(C)=O)ccc2c1c1c(n2Cc2ccccc2)C(=O)c2ccccc2C1=O",
    "Label": "inactive"
  },
  {
    "Compound": "Brc1ccc(/C(N=N/C(=N\\Sc2ccccc2)c2ccc(Br)cc2)=N/Sc2ccccc2)cc1",
    "Label": "inactive"
  },
  {
    "Compound": "CCOC(=O)c1ccc(N[C@@H]2c3cc4c(cc3C(c3cc(OC)c(O)c(OC)c3)[C@H]3C(=O)OCC32)OCO4)cc1O (stereo not given in full)",
    "Label": "active"
  },
  {
    "Compound": "Cn1ccnc1Sc1ccc(/C=N\\NC(=O)c2cccc(F)c2)cc1[N+](=O)[O-]",
    "Label": "inactive"
  },
  {
    "Compound": "Cc1nc(Nc2ccc(Cl)cc2)sc1C(=O)Nc1cccc2c(=O)[nH][nH]c(=O)c12",
    "Label": "inactive"
  },
  {
    "Compound": "O=C1C(c2c(O)[nH]c3ccc(F)cc23)=Nc2ccccc21",
    "Label": "inactive"
  },
  {
    "Compound": "Clc1ccc(NCc2nnc(COc3ccc(OCc4nnc(CNc5ccc(Cl)cc5)o4)c(Cl)c3)o2)cc1",
    "Label": "inactive"
  },
  {
    "Compound": "c1cncc(CNc2ncn[nH]2)c1",
    "Label": "inactive"
  },
  {
    "Compound": "Cc1nn(CNc2ccc(F)c(Cl)c2)c(=S)n1/N=C/c1ccc(-c2ccc(Cl)cc2Cl)o1",
    "Label": "inactive"
  },
  {
    "Compound": "CC(C)c1ccccc1NC(=O)C(=O)Cc1nc2ccccc2s1",
    "Label": "inactive"
  },
  {
    "Compound": "CON(C)C(=O)CNC(=O)OCC1c2ccccc2-c2ccccc21",
    "Label": "inactive"
  },
  {
    "Compound": "CCCc1ccc(/N=C\\c2cc(OC)c(OC)c(OC)c2)cc1",
    "Label": "inactive"
  },
  {
    "Compound": "CC1(C)N=c2c(ncn2N)=C(C(N)=O)N1",
    "Label": "inactive"
  },
  {
    "Compound": "CNC1C(O)C(OC2C(N)CC(N)C(OC3OC(CN)=CCC3N)C2O)OCC1(C)O (stereo not given)",
    "Label": "inactive"
  },
  {
    "Compound": "COc1cc(N/N=C/C#N)cc(OC)c1OC",
    "Label": "inactive"
  },
  {
    "Compound": "Cn1cnc([N+](=O)[O-])c1Sc1nnc(-c2ccc(Cl)cc2)n1C",
    "Label": "inactive"
  }
]
